Provenance of the data: patent US20230330254A1

# measurement.description: Plasma stability of payloads (t½)
Where a SMILES comes first, the peptide text is derived from it. [ ]: non-standard residue; d: D form. The star is where a group is joined. Bip(2'-Et,4'-O(CH2)4NH2) = CCc1cc(OCCCCN)ccc1-c1ccc(C[C@H](N)C(=O)O)cc1; Nva(5-(3,5-Me2Ph)) = Cc1cc(C)cc(CCC[C@H](N)C(=O)O)c1; Ala(1H-tetrazol-5-yl) = N[C@@H](Cc1nnn[nH]1)C(=O)O; αMePhe(2-F) = C[C@](N)(Cc1ccccc1F)C(=O)O; Desaminohistidyl = O=C(CCc1c[nH]cn1)*
reported.property: Plasma stability t½

Input CCc1cc(OCCCCN)ccc1-c1ccc(C[C@H](NC(=O)[C@H](CC(=O)O)NC(=O)[C@H](CO)NC(=O)[C@@H](NC(=O)[C@](C)(Cc2ccccc2F)NC(=O)[C@@H](NC(=O)CNC(=O)[C@H](Cc2nn[nH]n2)NC(=O)CNC(=O)CCc2c[nH]cn2)[C@@H](C)O)[C@@H](C)O)C(=O)N[C@@H](CCCc2cc(C)cc(C)c2)C(N)=O)cc1 [P12] (Desaminohistidyl-G[Ala(1H-tetrazol-5-yl)]GT[αMePhe(2-F)]TSD[Bip(2'-Et,4'-O(CH2)4NH2)][Nva(5-(3,5-Me2Ph))]-NH2) , output reported Plasma stability t½.
>57.8 h
